MEASUREMENT TARGET: PDE10A1 (Homo sapiens (Human), UniProt Q9Y233)
Sequence (Q9Y233 other isoform, or with tags, fused parts or gaps): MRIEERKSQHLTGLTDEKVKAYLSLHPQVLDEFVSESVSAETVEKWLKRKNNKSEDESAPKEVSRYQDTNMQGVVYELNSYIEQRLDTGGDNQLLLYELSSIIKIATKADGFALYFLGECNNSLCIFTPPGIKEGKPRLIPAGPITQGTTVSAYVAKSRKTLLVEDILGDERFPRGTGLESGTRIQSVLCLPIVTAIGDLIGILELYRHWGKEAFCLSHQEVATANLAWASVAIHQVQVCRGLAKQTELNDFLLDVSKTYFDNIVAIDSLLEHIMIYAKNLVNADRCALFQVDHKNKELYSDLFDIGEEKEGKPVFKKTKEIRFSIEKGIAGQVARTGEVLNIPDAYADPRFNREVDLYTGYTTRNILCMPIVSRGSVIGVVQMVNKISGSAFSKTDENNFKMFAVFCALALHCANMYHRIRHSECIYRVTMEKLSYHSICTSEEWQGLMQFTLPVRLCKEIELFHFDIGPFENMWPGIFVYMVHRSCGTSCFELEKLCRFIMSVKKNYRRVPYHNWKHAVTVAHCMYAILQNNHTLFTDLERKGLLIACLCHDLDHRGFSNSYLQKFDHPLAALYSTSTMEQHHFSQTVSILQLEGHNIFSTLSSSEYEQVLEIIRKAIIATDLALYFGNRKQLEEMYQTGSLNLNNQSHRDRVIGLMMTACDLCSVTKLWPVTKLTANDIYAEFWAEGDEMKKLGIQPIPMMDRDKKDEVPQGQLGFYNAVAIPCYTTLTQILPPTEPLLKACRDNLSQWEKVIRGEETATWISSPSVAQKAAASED
TEST METHOD NOTES: biochemical
VALUE KIND: IC50 (nM)
Give a bare numeral; the unit nM is implied.

q: Fill in IC50 for C=CCSc1nnc2n(-c3ccccc3)c(=O)c3c(C)c(C)sc3n12 [BC11-8] tested with PDE10A1 (Homo sapiens (Human), UniProt Q9Y233).
a: 200

----------
MEASUREMENT TARGET: PDE7A (Homo sapiens (Human))
Sequence (Q13946 whole entry): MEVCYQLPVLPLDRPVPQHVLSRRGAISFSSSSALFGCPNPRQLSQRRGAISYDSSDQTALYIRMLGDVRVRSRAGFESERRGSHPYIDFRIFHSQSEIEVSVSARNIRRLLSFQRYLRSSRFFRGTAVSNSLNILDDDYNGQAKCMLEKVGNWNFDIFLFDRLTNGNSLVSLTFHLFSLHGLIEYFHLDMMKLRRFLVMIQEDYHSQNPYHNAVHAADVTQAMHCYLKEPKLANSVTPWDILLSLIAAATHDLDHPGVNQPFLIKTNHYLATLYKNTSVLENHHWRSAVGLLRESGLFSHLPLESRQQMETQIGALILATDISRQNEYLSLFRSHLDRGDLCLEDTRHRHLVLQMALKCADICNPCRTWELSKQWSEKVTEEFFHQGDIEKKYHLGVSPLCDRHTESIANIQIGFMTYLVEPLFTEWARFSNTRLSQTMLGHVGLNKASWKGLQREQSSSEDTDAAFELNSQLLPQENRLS
VALUE KIND: IC50 (µM)
Only the number, expressed in µM, is required.

q: GET IC50 where system = PDE7A (Homo sapiens (Human)) and item = CCN(CC)C(=O)c1cc(-c2cccs2)nc2c1c(C)nn2-c1ccccc1C
a: 43

----------
MEASUREMENT TARGET: PDE6C (Homo sapiens (Human))
Sequence (P51160 whole entry): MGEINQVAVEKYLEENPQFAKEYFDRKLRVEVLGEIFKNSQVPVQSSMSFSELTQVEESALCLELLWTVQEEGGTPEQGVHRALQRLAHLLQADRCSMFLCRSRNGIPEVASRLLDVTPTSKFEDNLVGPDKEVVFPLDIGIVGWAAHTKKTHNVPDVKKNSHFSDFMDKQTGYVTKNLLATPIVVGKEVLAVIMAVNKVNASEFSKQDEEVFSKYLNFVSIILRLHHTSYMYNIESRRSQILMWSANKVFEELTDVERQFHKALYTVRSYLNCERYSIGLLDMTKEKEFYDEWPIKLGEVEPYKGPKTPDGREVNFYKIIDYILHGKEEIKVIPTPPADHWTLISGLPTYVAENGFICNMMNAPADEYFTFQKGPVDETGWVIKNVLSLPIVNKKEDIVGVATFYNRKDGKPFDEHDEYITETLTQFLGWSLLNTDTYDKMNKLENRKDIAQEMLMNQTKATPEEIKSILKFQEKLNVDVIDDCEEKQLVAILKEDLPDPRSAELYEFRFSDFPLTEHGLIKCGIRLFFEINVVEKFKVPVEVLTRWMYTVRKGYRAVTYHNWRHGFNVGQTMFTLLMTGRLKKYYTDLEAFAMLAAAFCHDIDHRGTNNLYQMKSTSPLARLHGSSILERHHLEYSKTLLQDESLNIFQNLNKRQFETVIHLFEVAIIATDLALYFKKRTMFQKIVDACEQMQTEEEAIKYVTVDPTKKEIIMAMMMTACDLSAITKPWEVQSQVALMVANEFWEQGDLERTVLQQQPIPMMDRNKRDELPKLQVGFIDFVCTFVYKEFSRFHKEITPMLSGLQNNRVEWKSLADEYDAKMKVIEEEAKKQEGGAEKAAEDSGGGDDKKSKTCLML
VALUE KIND: pIC50
Notebook: values listed as pIC50 are -log10 of the concentration (mol/L).

q: Fill in reported pIC50 for this entry: CCN(CC)C(=O)c1cc(-c2cccs2)nc2c1c(C)nn2-c1ccccc1C
a: 4.60

----------
MEASUREMENT TARGET: PDE10A1 (Homo sapiens (Human))
TEST METHOD NOTES: In vitro enzyme assay, PDE10
MEASUREMENT PARAMETERS: read-out: IC50 PDE10; PDE10A, 30 nM cAMP
VALUE KIND: IC50 (µM)
Write down the numeric answer in µM and omit the unit.

q: State its IC50 for this compound: CCN(CC)C(=O)c1cc(-c2cccs2)nc2c1c(C)nn2-c1ccccc1C [BC11-15]
a: 35
